- EXPERIMENT: Hemolytic activity in Kunming mouse erythrocytes assessed as hemolytic rate at 256 uM incubated for 1 hr by multimode reader analysis relative to control
- Assay type: toxicity, cell-based, Erythrocyte
- CONDITION NOTES: read-out: Activity
This section presents molecules with their documented hemolysis at 1 h, 256 µM values.
ENDPOINT NAME: hemolysis at 1 h, 256 µM (%)

[[record]]
entry_smiles = "N=C(N)NCCC[C@@H](NC(=O)CNC(=O)[C@H]1CCCN1C(=O)[C@@H](CCCNC(=N)N)NC(=O)[C@@H](Cc1ccccc1)NC(=O)[C@@H](CCCNC(=N)N)NC(=O)[C@@H](Cc1ccccc1)NC(=O)[C@@H](CCCNC(=N)N)NC(=O)[C@H](N)Cc1ccccc1)C(=O)N[C@H](Cc1ccccc1)C(=O)N[C@H](CCCNC(=N)N)C(=O)N[C@H](Cc1ccccc1)C(=O)N[C@H](CCCNC(=N)N)C(=O)N[C@H](Cc1ccccc1)C(N)=O"
recorded_value = 4.3

[[record]]
entry_smiles = "N=C(N)NCCC[C@H](NC(=O)CNC(=O)[C@H]1CCCN1C(=O)[C@H](CCCNC(=N)N)NC(=O)[C@H](Cc1ccccc1)NC(=O)[C@H](CCCNC(=N)N)NC(=O)[C@H](Cc1ccccc1)NC(=O)[C@H](CCCNC(=N)N)NC(=O)[C@@H](N)Cc1ccccc1)C(=O)N[C@@H](Cc1ccccc1)C(=O)N[C@@H](CCCNC(=N)N)C(=O)N[C@@H](Cc1ccccc1)C(=O)N[C@@H](CCCNC(=N)N)C(=O)N[C@@H](Cc1ccccc1)C(N)=O"
recorded_value = 9.7

[[record]]
entry_smiles = "CC[C@H](C)[C@H](N)C(=O)N[C@@H](CCCNC(=N)N)C(=O)N[C@H](C(=O)N[C@@H](CCCNC(=N)N)C(=O)N[C@H](C(=O)N[C@@H](CCCNC(=N)N)C(=O)N1CCC[C@@H]1C(=O)NCC(=O)N[C@@H](CCCNC(=N)N)C(=O)N[C@H](C(=O)N[C@@H](CCCNC(=N)N)C(=O)N[C@H](C(=O)N[C@@H](CCCNC(=N)N)C(=O)N[C@H](C(N)=O)[C@@H](C)CC)[C@@H](C)CC)[C@@H](C)CC)[C@@H](C)CC)[C@@H](C)CC"
recorded_value = 4.1

